variants and their reported protein stability index
B1: CAMK2D (parent)
chain: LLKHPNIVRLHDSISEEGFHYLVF

variants of: B1; assay: protein stability index of a GFP-peptide fusion (GPS, HEK-293T) (PSI 1-6); higher = more stable; details: c terminus: a fixed tail appended;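 further: lentivirally expressed fusions sorted by FACS into six bins by GFP to DsRed ratio, PSI derived from sequencing read proportions per bin multiplied by bin number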
Give the value as a plain number.

[
  {
    "VARIANT_KEY": "H4D",
    "PROPERTY_LABEL": "protein stability index",
    "MEASURED": 1.77
  },
  {
    "VARIANT_KEY": "L2E",
    "PROPERTY_LABEL": "protein stability index",
    "MEASURED": 2.04
  },
  {
    "VARIANT_KEY": "D12P",
    "PROPERTY_LABEL": "protein stability index",
    "MEASURED": 2.38
  },
  {
    "VARIANT_KEY": "L22I",
    "PROPERTY_LABEL": "protein stability index",
    "MEASURED": 2.96
  }
]

Any idea what protein stability index was measured for H11A ? 2.57

Any idea what protein stability index was measured for L10W ? 3.54

Any idea what protein stability index was measured for L1K ? 3.1

Any idea what protein stability index was measured for R9F ? 1.26

Any idea what protein stability index was measured for E16V ? 1.39

Numbers sourced from the supplement of paper PMC10567573.
